System: rat erythrocytes
Assay: Hemolysis assay
Assay type: cell-based
Conditions: pH 7.4
Square brackets hold non-standard residues; d marks the D form. Peptide text beside a SMILES is read from it. Gly(N(CH2)2(3-indolyl)) = O=C(O)CNCCc1c[nH]c2ccccc12; Nspe = C[C@H](NCC(=O)O)c1ccccc1; Nlys = NCCCCNCC(=O)O
This section presents molecules with their documented HC50 values.
Entry rule: numbers only, all in µM.

Worked examples, 2 molecules total:
- molecule: "C[C@H](NCC(=O)N(CCCCN)CC(=O)N(CC(=O)N(CC(=O)N(CCCCN)CC(=O)N(CC(=O)N(CC(=O)N(CCCCN)CC(=O)N(CC(=O)N(CC(=O)N(CCCCN)CC(=O)N(CC(N)=O)[C@@H](C)c1ccccc1)[C@@H](C)c1ccccc1)[C@@H](C)c1ccccc1)[C@@H](C)c1ccccc1)[C@@H](C)c1ccccc1)[C@@H](C)c1ccccc1)[C@@H](C)c1ccccc1)c1ccccc1 [peptoid 48] (H-[Nspe][Nlys][Nspe][Nspe][Nlys][Nspe][Nspe][Nlys][Nspe][Nspe][Nlys][Nspe]-NH2)"
  HC50, µM: 48.4
- molecule: "C[C@@H](c1ccccc1)N(CC(=O)N(CCCCN)CC(=O)N(CC(=O)N(CC(=O)N(CCCCN)CC(=O)N(CC(=O)N(CC(=O)N(CCCCN)CC(=O)N(CC(=O)N(CC(=O)N(CCCCN)CC(=O)N(CCCCN)CC(N)=O)[C@@H](C)c1ccccc1)[C@@H](C)c1ccccc1)[C@@H](C)c1ccccc1)[C@@H](C)c1ccccc1)[C@@H](C)c1ccccc1)[C@@H](C)c1ccccc1)C(=O)CNCCc1c[nH]c2ccccc12 [peptoid 61] (H-[Gly(N(CH2)2(3-indolyl))][Nspe][Nlys][Nspe][Nspe][Nlys][Nspe][Nspe][Nlys][Nspe][Nspe][Nlys][Nlys]-NH2)"
  HC50, µM: 65.4

Next molecule, HC50 to be filled in.
Reported HC50 for `C[C@@H](c1ccccc1)N(CC(N)=O)C(=O)CN(C(=O)CN(CCCCN)C(=O)CN(C(=O)CN(C(=O)CN(CCCCN)C(=O)CN(CCc1c[nH]c2ccccc12)C(=O)CN(CCc1c[nH]c2ccccc12)C(=O)CN(CCCCN)C(=O)CN(CCc1c[nH]c2ccccc12)C(=O)CN(CCc1c[nH]c2ccccc12)C(=O)CNCCCCN)[C@@H](C)c1ccccc1)[C@@H](C)c1ccccc1)[C@@H](C)c1ccccc1` : what is it?
64.9
